Every entry's value here was drawn from ChEMBL document CHEMBL4219201.

test: Cytotoxicity against MDCK cells assessed as reduction in cell viability by CCK8 assay; format: cell-based, Canis lupus familiaris; conditions: dog
CC50 reference

Consider the worked cases shown below.
| Smiles code | CC50 |
| --- | --- |
| CCOC(=O)C[C@@H]1C(C(=O)OC)=CO[C@@H](C)[C@@H]1C=O | 90.8 µM |
| COC(=O)C1=CO[C@@H](O[C@@H]2O[C@H](CO)[C@@H](O)[C@H](O)[C@H]2O)/C(=C/C(=O)O)[C@@H]1CC(=O)OCCc1ccc(O)cc1 | > 100 µM |
| C=C[C@H]1[C@H](O[C@@H]2O[C@H](COC(=O)/C=C/c3ccccc3)[C@@H](O)[C@H](O)[C@H]2O)OC=C(C(=O)O)[C@H]1CC(=O)O | 80.5 µM |

# input Look up CC50 for this compound: COC(=O)C1=CO[C@@H](O[C@@H]2O[C@H](CO)[C@@H](O)[C@H](O)[C@H]2O)/C(=C/C(=O)O)[C@@H]1CC(=O)OCCc1ccc(O)c(O)c1
# output > 100 µM
